Tested on: CCRF-CEM leukemia
Assay: NCI-60 one-dose screen, 48 h (100 = growth as untreated, 0 = no growth, -100 = all killed)
Conditions: 10 µM unless noted
About 83,000 compounds went through this panel and 20% of them were active in at least one assay; those are over-represented in the sample as a whole.
Endpoint Label: growth (%)
Give bare numbers, in %.

COc1cccc(-c2nc3sccn3c2-c2ccnc(NCCNS(=O)(=O)c3c(Cl)cccc3Cl)c2)c1: 31.1
CC(=[N-])N1CCC[C@@H](Nc2c3ccccc3nc3ccccc23)C1.[Cl][Pt].[NH-]CCC[NH-]: 35.4

Okay, now this compound:
growth lookup needed for COc1ccc(-c2nc3ncccn3c2/C=C/C(=O)c2cc(OC)c(OC)c(OC)c2)cc1 , thanks.
1.32

Origin of the recorded values: PubChem BioAssay (NCI)
